Data provenance is ChEMBL document CHEMBL1201862.

Reported GI50 values for the following compounds.
test system: SW-620; experiment: NCI tumour cell line growth inhibition, 48 h
Calls of active or inactive are those of the source. Cut-off read from the data, not from the text of the source: active = GI50 up to about 1.1 µM and inactive = higher.
Metric: GI50

# Compound, Metric, Observed
records = [
    ("NC(=S)N/N=C/C(O[C@@H](/C=N/NC(N)=S)CO)n1cnc2c(N)ncnc21 (stereo partly specified)", "GI50", "> 38 µM (inactive)"),
    ("CCOC(=O)/C=C(\\C(=O)OCC)n1cc(C)c(=O)n(Cc2cnnn2CCCCOC(C)=O)c1=O", "GI50", "2.32 µM (inactive)"),
    ("O=C1c2n[nH]nc2C(=O)c2n[nH]nc21", "GI50", "> 100 µM (inactive)"),
    ("CC1(C)C2CCC3(OCCO3)C1C1OC12 (stereo unspecified)", "GI50", "> 100 µM (inactive)"),
    ("CC(Br)C(=O)NC(CO)C(=O)O (stereo unspecified)", "GI50", "> 100 µM (inactive)"),
    ("CN(C)C(=O)/N=c1\\ss/c(=N\\C(=S)N(C)C)n1-c1ccccc1", "GI50", "28.3 µM (inactive)"),
    ("CCOCN1COCN/C1=N/C#N", "GI50", "17.9 µM (inactive)"),
    ("Cc1cccc(C)c1NC(=O)C(=O)C1C(=O)N(c2ccccc2)N=C1N (stereo unspecified)", "GI50", "> 100 µM (inactive)"),
    ("CCOC(=O)c1cc(-c2ccc(-c3cc(C(=O)OCC)c(C#N)c(N)c3C#N)cc2)c(C#N)c(N)c1C#N", "GI50", "> 100 µM (inactive)"),
    ("CCc1nnc(CC)n1NCCCC(=O)O", "GI50", "> 100 µM (inactive)"),
    ("CN(C)C(=S)N=C(Nc1ccccc1)Nc1ccccc1", "GI50", "> 100 µM (inactive)"),
]

====

system: SK-MEL-2; experiment: NCI tumour cell line growth inhibition, 48 h
Activity calls are given as the source filed them. Rule as the data show it: active = GI50 up to about 1.1 µM and inactive = higher.
Outcome codes: 1 = active, 0 = inactive

# Compound, Cat
rows = [
    ("Cc1ccc(S(=O)(=O)NN=C2CCCCCCCCCCC2)cc1", 0),
    ("CC(C)CCCC(C)[C@H]1CCC2[C@@H]3CCC4Nc5c(cnn5-c5ccccc5)C[C@]4(C)C3CC[C@@]21C (stereo partly drawn)", 0),
    ("COc1ccc2c(c1)CC1Cc3cc(OC)c(OC)cc3CN1CC2 (stereo not drawn)", 0),
    ("CC(=O)Nc1ccc(-c2nnc(SCC(=O)Nc3cccc(C)c3)o2)cc1", 0),
    ("Cc1ccc(-c2nnc3s/c(=C\\c4ccc(N(C)C)cc4)c(=O)n23)cc1", 0),
    ("CCN(CC)C(=O)c1ccc(C)c(/N=N/N(C)C)c1", 0),
    ("CC(=O)Oc1ccc2c(c1)CC[C@@H]1C2[C@@H](O[N+](=O)[O-])C[C@@]2(C)C1CC[C@@H]2O (stereo partly drawn)", 0),
    ("O=C(OC(=C(c1ccccc1)c1ccccc1)N1CCCC1=S)C(c1ccccc1)c1ccccc1", 0),
    ("CN(C(=O)C1=CCCCCC1)c1ccccc1I", 0),
    ("CCOc1ccccc1NC(=O)C(=O)CC(=O)C1=C(C)Nc2ccccc2S1", 0),
    ("CC1(C)Oc2ccccc2OC1O (stereo not drawn)", 0),
    ("C=C(Br)N(CC)CC", 0),
    ("CCCC(=O)O[C@H]1C=C2C[C@@]34SS[C@]5(CC6=C[C@H](OC(C)=O)[C@@H]7O[C@@H]7[C@H]6N5C3=O)C(=O)N4[C@@H]2[C@H]2O[C@H]21", 1),
]
